experiment: in vitro; conditions: mouse, ht-22
// boundary case: IC50 at 48 h equal to 20 µM maps to criterion not met; strictly smaller maps to criterion met

[
  {
    "compound": "Cc1ccc([N+](=O)[O-])cc1S(=O)(=O)N(C)/N=C/c1cnc2ccc(Br)cn12",
    "class": "criterion met"
  }
]

## Task Please indicate whether the reported IC50 at 48 h of COc1cc(CCc2c(O)ccc(O[C@@H]3O[C@H](CO)[C@@H](O)[C@H](O)[C@H]3O)c2C(C)=O)ccc1O [SCORZODIHYDROSTILBENE A] is strictly below 20 µM.
## Result criterion not met

## Task Field: below-cutoff. Rule: recorded IC50 at 48 h strictly less than 20 µM. Subject: COc1ccc2sc(-c3cncc(NC(C)=O)c3)nc2c1
## Result criterion not met

## Task Given O=C(O)c1ccc2c(c1)nc(Nc1cccc(Cl)c1)c1ccncc12 [SILMITASERTIB] , is recorded IC50 at 48 h strictly lower than 20 µM?
## Result criterion not met

## Task Find out if reported IC50 at 48 h for COc1ccc2c(c1)[nH]c1c(C)nccc12 [HARMINE] is less than 20 µM
## Result criterion not met

## Task Problem: For the compound CCN(CC)Cc1ccc(OC)c(-c2cc3c(-c4ccc(C(=O)O)c(C(C)C)c4)ccnc3[nH]2)c1 , is IC50 at 48 h under 20 µM?
## Result criterion met

## Task Field: below-cutoff. Rule: recorded IC50 at 48 h strictly less than 20 µM. Subject: c1ccc(CNc2nc(Nc3cc(C4CC4)[nH]n3)c3sccc3n2)cc1
## Result criterion not met

## Task Just wondering, is IC50 at 48 h of [H]/N=C(\N/C(=N/[H])NCCCCCCNC(=N)NC(=N)Nc1ccc(Cl)cc1)Nc1ccc(Cl)cc1 [CHLORHEXIDINE] below 20 µM?
## Result criterion met

## Task Determine if COc1ccc(-n2c(C)c([N+](=O)[O-])c3ccc(O)cc32)cc1 shows IC50 at 48 h strictly lower than 20 µM.
## Result criterion not met
